The values you see were collected from paper PMC12892976.

Each entry below carries its recorded MIC / MEC.
system: Aspergillus frankstonensis; experiment: MIC broth microdilution (CLSI); assay type: cell-based; conditions: Aspergillus frankstonensis DTO 341-F3

Below: 7 compounds and their reported MIC / MEC.
[[record]]
compound = "Nc1nc(=O)[nH]cc1F [5FC, 5-flucytosine]"
experimental_value = ">64 µg/mL"

[[record]]
compound = "CC[C@H](C)C[C@H](C)CCCCCCCCC(=O)N[C@H]1C[C@@H](O)[C@@H](NCCN)NC(=O)[C@@H]2[C@@H](O)CCN2C(=O)[C@H]([C@H](O)CCN)NC(=O)[C@H]([C@H](O)[C@@H](O)c2ccc(O)cc2)NC(=O)[C@@H]2C[C@@H](O)CN2C(=O)[C@H]([C@@H](C)O)NC1=O [CAS, caspofungin]"
experimental_value = "0.13 µg/mL"

[[record]]
compound = "CCC(C)n1ncn(-c2ccc(N3CCN(c4ccc(OCC5COC(Cn6cncn6)(c6ccc(Cl)cc6Cl)O5)cc4)CC3)cc2)c1=O (centres unmarked) [ITR, itraconazole]"
experimental_value = "2 µg/mL"

[[record]]
compound = "CC(=O)N1CCN(c2ccc(OCC3COC(Cn4ccnc4)(c4ccc(Cl)cc4Cl)O3)cc2)CC1 (centres unmarked) [KET, ketoconazole]"
experimental_value = "8 µg/mL"

[[record]]
compound = "O=P(O)(O)C(O)(Cn1ccnc1)P(=O)(O)O [ZOL, zoledronate]"
experimental_value = "128 µg/mL"

[[record]]
compound = "C[C@@H](c1ncncc1F)[C@](O)(Cn1cncn1)c1ccc(F)cc1F [VOR]"
experimental_value = "2 µg/mL"

[[record]]
compound = "C[C@@H]1[C@H](O)[C@@H](C)/C=C/C=C/C=C/C=C/C=C/C=C/C=C/[C@H](O[C@@H]2O[C@H](C)[C@@H](O)[C@H](N)[C@@H]2O)C[C@@H]2O[C@](O)(C[C@@H](O)C[C@@H](O)[C@H](O)CC[C@@H](O)C[C@@H](O)CC(=O)O[C@H]1C)C[C@H](O)[C@H]2C(=O)O [AMB, amphotericin B]"
experimental_value = "2 µg/mL"


Attention now shifts to the item below.
input: Recall and state the measured MIC / MEC for CCCCCCCCCCn1cc[n+](CC(O)(P(=O)(O)O)P(=O)(O)O)c1 [10-ZOL, Decyl-zoledronate] .
output: 1 µg/mL

----------
system: Aspergillus fumigatus biofilms; experiment: biofilm XTT reduction assay (SIC80, SFICI); format: cell-based; settings: agent alone, Aspergillus fumigatus ATCC 204305
measurement.type: SIC80 (µg/mL)
State the answer as a number, implicitly in µg/mL.

// solved cases for SIC80 follow
[[record]]
compound = "CCCCCCCCCCn1cc[n+](CC(O)(P(=O)(O)O)P(=O)(O)O)c1 [10-ZOL, Decyl-zoledronate]"
experimental_value = 128

[[record]]
compound = "CCC(C)n1ncn(-c2ccc(N3CCN(c4ccc(OCC5COC(Cn6cncn6)(c6ccc(Cl)cc6Cl)O5)cc4)CC3)cc2)c1=O (stereo not shown) [ITR, itraconazole]"
experimental_value = 256


input: Kindly indicate its recorded SIC80. Item: CC(=O)N1CCN(c2ccc(OCC3COC(Cn4ccnc4)(c4ccc(Cl)cc4Cl)O3)cc2)CC1 (stereo not shown) [KET, ketoconazole]
output: 256

----------
system: Lomentospora prolificans; assay: checkerboard drug interaction (FICI, MICc); settings: in combination with ZOL;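 further: simplified diagonal checkerboard screen pairing antifungals with FPPS inhibitors, FICI calculated under the Loewe additivity model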
measurement.type: antifungal MICc
Answer as a number with no unit attached.

Past entries and their recorded results:
[[record]]
compound = "OC(Cn1cncn1)(Cn1cncn1)c1ccc(F)cc1F [FLC, fluconazole]"
assay_system = "Lomentospora prolificans"
measurement_type = "antifungal MICc"
experimental_value = 512

[[record]]
compound = "CC[C@H](C)C[C@H](C)CCCCCCCCC(=O)N[C@H]1C[C@@H](O)[C@@H](NCCN)NC(=O)[C@@H]2[C@@H](O)CCN2C(=O)[C@H]([C@H](O)CCN)NC(=O)[C@H]([C@H](O)[C@@H](O)c2ccc(O)cc2)NC(=O)[C@@H]2C[C@@H](O)CN2C(=O)[C@H]([C@@H](C)O)NC1=O [CAS, caspofungin]"
assay_system = "Lomentospora prolificans"
measurement_type = "antifungal MICc"
experimental_value = 64

[[record]]
compound = "C[C@@H]1[C@H](O)[C@@H](C)/C=C/C=C/C=C/C=C/C=C/C=C/C=C/[C@H](O[C@@H]2O[C@H](C)[C@@H](O)[C@H](N)[C@@H]2O)C[C@@H]2O[C@](O)(C[C@@H](O)C[C@@H](O)[C@H](O)CC[C@@H](O)C[C@@H](O)CC(=O)O[C@H]1C)C[C@H](O)[C@H]2C(=O)O [AMB, amphotericin B]"
assay_system = "Lomentospora prolificans"
measurement_type = "antifungal MICc"
experimental_value = 4

[[record]]
compound = "CCC(C)n1ncn(-c2ccc(N3CCN(c4ccc(OCC5COC(Cn6cncn6)(c6ccc(Cl)cc6Cl)O5)cc4)CC3)cc2)c1=O (stereo not shown) [ITR, itraconazole]"
assay_system = "Lomentospora prolificans"
measurement_type = "antifungal MICc"
experimental_value = 2

[[record]]
compound = "Nc1nc(=O)[nH]cc1F [5FC, 5-flucytosine]"
assay_system = "Lomentospora prolificans"
measurement_type = "antifungal MICc"
experimental_value = 256

[[record]]
compound = "C[C@@H](c1ncncc1F)[C@](O)(Cn1cncn1)c1ccc(F)cc1F [VOR]"
assay_system = "Lomentospora prolificans"
measurement_type = "antifungal MICc"
experimental_value = 16


input: Indicate its recorded antifungal MICc; the compound in question is CC(=O)N1CCN(c2ccc(OCC3COC(Cn4ccnc4)(c4ccc(Cl)cc4Cl)O3)cc2)CC1 (stereo not shown) [KET, ketoconazole]
output: 2

----------
system: Trichophyton rubrum; experiment: MIC/MFC broth microdilution (CLSI); settings: Trichophyton rubrum R-218
measurement.type: MIC / MEC (µg/mL)
Give the number; µg/mL is assumed, so skip it.

Some compounds with recorded MIC / MEC:
[[record]]
compound = "CC(=O)N1CCN(c2ccc(OCC3COC(Cn4ccnc4)(c4ccc(Cl)cc4Cl)O3)cc2)CC1 (centres unmarked) [KET, ketoconazole]"
experimental_value = 4

[[record]]
compound = "C[C@@H](c1ncncc1F)[C@](O)(Cn1cncn1)c1ccc(F)cc1F [VOR]"
experimental_value = 1

[[record]]
compound = "C[C@@H]1[C@H](O)[C@@H](C)/C=C/C=C/C=C/C=C/C=C/C=C/C=C/[C@H](O[C@@H]2O[C@H](C)[C@@H](O)[C@H](N)[C@@H]2O)C[C@@H]2O[C@](O)(C[C@@H](O)C[C@@H](O)[C@H](O)CC[C@@H](O)C[C@@H](O)CC(=O)O[C@H]1C)C[C@H](O)[C@H]2C(=O)O [AMB, amphotericin B]"
experimental_value = 1


input: Report value only: MIC / MEC, Trichophyton rubrum, OC(Cn1cncn1)(Cn1cncn1)c1ccc(F)cc1F [FLC, fluconazole]
output: 64

input: Give reported MIC / MEC for CC[C@H](C)C[C@H](C)CCCCCCCCC(=O)N[C@H]1C[C@@H](O)[C@@H](NCCN)NC(=O)[C@@H]2[C@@H](O)CCN2C(=O)[C@H]([C@H](O)CCN)NC(=O)[C@H]([C@H](O)[C@@H](O)c2ccc(O)cc2)NC(=O)[C@@H]2C[C@@H](O)CN2C(=O)[C@H]([C@@H](C)O)NC1=O [CAS, caspofungin] (Trichophyton rubrum)
output: 0.25

----------
Target or system Trichophyton rubrum: recorded MIC listed per item.
Value expressed in µg/mL; do not type the unit.

Answered cases to consult:
[[record]]
molecule = "CCC(C)n1ncn(-c2ccc(N3CCN(c4ccc(OCC5COC(Cn6cncn6)(c6ccc(Cl)cc6Cl)O5)cc4)CC3)cc2)c1=O (stereo not drawn)"
experimental_value = 8

[[record]]
molecule = "CCCCCCCCCCCCN1CCC[C@H]1C(=O)N[C@@H](CC(=O)OC)C(=O)OC"
experimental_value = 16


input: // output MIC; input CCCCCCCCCCN1CCC[C@H]1C(=O)N[C@@H](CC(=O)OC)C(=O)OC ; system Trichophyton rubrum
output: 8

input: Provide Trichophyton rubrum MIC reading for CCCCCCCCCN1CCC[C@H]1C(=O)N[C@@H](CC(=O)OC)C(=O)OC .
output: 128

input: Please look at CCCCCCCCCN1CCC[C@H]1C(=O)N[C@H](CC(=O)OC)C(=O)OC and tell me its recorded MIC on Trichophyton rubrum.
output: 32

input: Find the measured MIC of CCCCCCCCCCCN1CCC[C@H]1C(=O)N[C@@H](CC(=O)OC)C(=O)OC with Trichophyton rubrum as test system.
output: 16

input: Answer briefly: MIC recorded on Trichophyton rubrum for CCCCCCCCCCn1cc[n+](CC(O)(P(=O)(O)O)P(=O)(O)O)c1 [10-ZOL, Decyl-zoledronate]
output: 1

input: // output MIC; input CC(=O)N1CCN(c2ccc(OCC3COC(Cn4ccnc4)(c4ccc(Cl)cc4Cl)O3)cc2)CC1 (stereo not drawn) ; system Trichophyton rubrum
output: 4
